# measurement_target: Cyclin-dependent kinase 2/cyclin A (Homo sapiens) (UniProt P24941+P20248+P78396)
# measurement_parameters: at 1 µM
recorded_endpoint: residual activity

>  <molecule_smiles>
N#Cc1cnc2cnc(NCc3cccnc3)cc2c1Nc1ccc(F)c(Cl)c1

>  <residual activity>
91%

$$$$
>  <molecule_smiles>
Cc1ccc(NC2=CC(=O)c3sc(C)nc3C2=O)cc1

>  <residual activity>
91%

$$$$
>  <molecule_smiles>
Nc1n[nH]c2nnc(-c3c(-c4ccccc4)nn4ccccc34)cc12

>  <residual activity>
92%

$$$$

Return reported residual activity; argument: Oc1n[nH]c2nnc(-c3c(-c4ccccc4)nn4ccccc34)cc12
89%
